test: Half life in rat liver microsomes; assay type: ADME
Reported half-life values follow for various molecules

| test_smiles | observed |
| --- | --- |
| O=C1NN=C(c2ccc(OC3CCN(C4CCC4)CC3)cc2)[C@H]2C[C@@H]12 | > 40 min |

Entry O=C1NN=C(c2ccc(OC3CCN(C4CCC4)CC3)cc2)[C@@H]2C[C@H]12 — recorded half-life = > 40 min

* * *

test: Terminal half life in dog at 1 mg/kg, iv; assay type: ADME, organism-based, Canis lupus familiaris; parameters: dose 1 mg/kg, route intravenous; details: in vivo, read-out: beta t1/2 (converted)
readout_type: half-life (h)
Give just the number in h; leave the unit off.

Briefly, half-life measured for O=C1NN=C(c2ccc(OC3CCN(C4CCC4)CC3)cc2)[C@H]2C[C@@H]12 : 3
